- Tested on: Immortalised Mouse Dermal Fibroblasts (MDFs)
- Experimental Details: Cellular assay: inhibition of TSI induced necroptosis, CellTitre-Glo viability
- Experimental Conditions: Mus musculus, Fibroblast; MDF, 3 hours TSI cocktail, Table 27; read-out: Inhibition of TSI-induced necroptosis (IC50 cell-based assay) in MDF
pIC50: −log10 of the molar value.
Catalogue of compounds with associated pIC50

Compound: C[C@H](Oc1cc(-c2nn(C)c3c(-c4cnn(C5CCN(C(=O)CC6CCN(c7cccc8c7C(=O)N(C7CCC(=O)NC7=O)C8=O)C6)CC5)c4)cnc(N)c23)ccc1NS(=O)(=O)C(F)F)c1ccc(F)cc1 (stereo partly shown)
pIC50: > 6.00

Compound: C[C@H](Oc1cc(-c2nn(C)c3c(-c4cnn(C5CCN(CC6CCN(c7cccc8c7C(=O)N(C7CCC(=O)NC7=O)C8=O)C6)CC5)c4)cnc(N)c23)ccc1NS(=O)(=O)C(F)F)c1ccc(F)cc1 (stereo partly shown)
pIC50: > 6.00

Compound: C[C@H](Oc1cc(-c2nn(C)c3c(-c4cnn(C5CCN(C(=O)COc6ccc7c(c6)C(=O)N(C6CCC(=O)NC6=O)C7=O)CC5)c4)cnc(N)c23)ccc1NS(=O)(=O)C(F)F)c1ccc(F)cc1 (stereo partly shown)
pIC50: > 6.00

Okay, next one:
In: Which pIC50 is listed for CCS(=O)(=O)Nc1ccc(-c2nn(C)c3c(-c4cnn(C5CCN(C(=O)[C@H]6C[C@H](Nc7cccc8c7C(=O)N(C7CCC(=O)NC7=O)C8=O)C6)CC5)c4)cnc(N)c23)cc1F (stereo partly shown) ?
Out: > 6.00

###

- Study System: endogenous MLKL in MDF (Mus musculus (Mouse), UniProt Q9D2Y4)
- Sequence (Q9D2Y4 whole entry): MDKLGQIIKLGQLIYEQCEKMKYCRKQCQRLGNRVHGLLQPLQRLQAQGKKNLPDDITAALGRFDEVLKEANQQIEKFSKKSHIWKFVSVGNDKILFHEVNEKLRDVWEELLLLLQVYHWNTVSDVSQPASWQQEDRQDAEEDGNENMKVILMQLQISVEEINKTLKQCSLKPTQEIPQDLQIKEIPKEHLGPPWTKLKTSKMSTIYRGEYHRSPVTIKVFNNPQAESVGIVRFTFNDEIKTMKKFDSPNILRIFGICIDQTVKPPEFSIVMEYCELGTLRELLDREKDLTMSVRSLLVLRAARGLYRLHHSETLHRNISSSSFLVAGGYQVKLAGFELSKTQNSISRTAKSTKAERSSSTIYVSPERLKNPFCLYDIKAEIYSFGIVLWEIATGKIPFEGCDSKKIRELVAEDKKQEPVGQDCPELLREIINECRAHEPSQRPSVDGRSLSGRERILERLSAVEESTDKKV
- Experimental Details: Degradation assay: endogenous MLKL in MDF (western blot)
- Experimental Conditions: MDF cells, 24 h incubation with compound, MLKL adjusted for loading with GAPDH, normalized to DMSO only control, read-out: Degradation of endogenous MLKL in MDF (DC50 cell-based assay)
Catalogue of compounds with associated DC50

In the examples that follow, each entry is paired with its recorded DC50.
Compound: Cc1ncsc1-c1ccc(CNC(=O)[C@@H]2C[C@@H](O)CN2C(=O)[C@@H](NC(=O)CN2CCC(C#Cc3cnc(N)c4c(-c5ccc(NS(=O)(=O)C(F)F)c(O[C@@H](C)c6ccc(F)cc6)c5)nn(C)c34)CC2)C(C)(C)C)cc1 [Compound 1023]
Study System: endogenous MLKL in MDF (Mus musculus (Mouse), UniProt Q9D2Y4)
DC50: 1000 to 10000 nM
--
Compound: Cc1ncsc1-c1ccc(CNC(=O)[C@@H]2C[C@@H](O)CN2C(=O)[C@@H](NC(=O)C2(F)CC2)C(C)(C)C)c(OCCCCCn2cc(-c3cnc(N)c4c(-c5ccc(NS(=O)(=O)C(F)F)c(O[C@@H](C)c6ccc(F)cc6)c5)nn(C)c34)cn2)c1 [Compound 1068]
Study System: endogenous MLKL in MDF (Mus musculus (Mouse), UniProt Q9D2Y4)
DC50: < 1000 nM

Okay, next one:
In: Item C[C@H](Oc1cc(-c2nn(C)c3c(-c4cnn(C5CCN(C(=O)C6CCC(c7cccc8c7C(=O)N(C7CCC(=O)NC7=O)C8=O)CC6)CC5)c4)cnc(N)c23)ccc1NS(=O)(=O)C(F)F)c1ccc(F)cc1 (stereo partly drawn) [Compound 1125] with endogenous MLKL in MDF (Mus musculus (Mouse), UniProt Q9D2Y4) - DC50?
Out: < 1000 nM
